Molecular target: human S1PR5 receptor (Homo sapiens, UniProt Q9H228)
Construct: host or cells: CHO-K1
Sequence (Q9H228 whole entry): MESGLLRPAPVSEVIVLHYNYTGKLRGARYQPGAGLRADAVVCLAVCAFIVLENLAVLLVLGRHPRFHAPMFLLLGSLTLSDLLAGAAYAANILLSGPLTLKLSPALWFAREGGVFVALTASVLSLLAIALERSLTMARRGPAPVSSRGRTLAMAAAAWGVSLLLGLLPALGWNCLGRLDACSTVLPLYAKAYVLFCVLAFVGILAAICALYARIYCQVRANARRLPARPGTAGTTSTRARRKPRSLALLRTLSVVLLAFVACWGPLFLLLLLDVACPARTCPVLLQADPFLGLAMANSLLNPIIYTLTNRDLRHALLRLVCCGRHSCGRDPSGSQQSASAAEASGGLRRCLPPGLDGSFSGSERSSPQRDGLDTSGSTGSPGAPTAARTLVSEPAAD
Assay: Method 1: intracellular Ca2+ release (FLIPR, Calcium 5) in recombinant CHO-K1 cells
Assay type: cell-based
Conditions: agonist potency, determined with method 1 (symbols A-D); read-out: S1P5 EC50 range
measure: EC50

# compound, EC50
records = [
    ("CC(CC(=O)O)CN1CCc2nc(-c3ccc(OCc4cccc(Cl)c4Cl)cc3)ncc2C1 (centres unmarked)", "10 to 100 nM"),
    ("O=C(O)CN1CCc2nc(-c3ccc(OCc4c(Cl)cccc4Cl)cc3)ncc2C1", "100 to 1000 nM"),
    ("O=C(O)CC1(CN2CCc3nc(-c4ccc(OCc5cccc(Cl)c5)cc4)ncc3C2)CC1 [Compound 327]", "1000 to 10000 nM"),
]

Query block: Form field: reported EC50 of `O=C(O)CN1CCc2nc(Cc3ccccc3)ncc2C1`
Result block: 1000 to 10000 nM

Query block: For the compound shown here, O=C(O)C1CC(N2CCc3nc(Cc4c(F)cccc4F)ncc3C2)C1 (centres unmarked) , give the reported EC50.
Result block: 1000 to 10000 nM
